Test system: Human immunodeficiency virus 1
Assay: Antiviral activity against HIV1 infected in human MT2 cells assessed as protection from viral replication
Assay type: functional, organism-based
Conditions: Human immunodeficiency virus 1, MT2
VALUE TYPE: EC50

Incoming: Hello, I am looking for reported EC50 with Human immunodeficiency virus 1 for `COc1ccc(Cc2nnc(Nc3ccc(C)cc3)o2)cc1OC` . Could you help?
Outgoing: > 100 µM

====

Would you mind telling me the reported pIC50 of each entry?
Assay: Inhibition of HIV1 His6-tagged integrase-FLAG-tagged LEDGF/p75 (unknown origin) interaction after 1 hr by AlphaScreen assay
Please treat pIC50 as minus the base-10 logarithm of the molar concentration.

Incoming: Which pIC50 is reported for this compound? `O=C(O)/C(O)=C/C(=O)c1c[nH]c2cccc(O)c12`
Outgoing: 4.46

Incoming: Which pIC50 is reported for this compound? `O=C(O)/C(O)=C/C(=O)c1cn(Cc2ccc(F)cc2)c2ccccc12`
Outgoing: 4.00
